I'd appreciate it if you could supply growth values for the items below.
Tested on: NCI/ADR-RES ovarian
METHOD_DESCRIPTION: NCI-60 one-dose screen, 48 h (100 = growth as untreated, 0 = no growth, -100 = all killed)
TEST_PARAMETERS: 10 µM unless noted
About 83,000 compounds went through this panel and 20% of them were active in at least one assay; those are over-represented in the sample as a whole. Activity calls are given as the source filed them. Rule for the calls: active = growth percent below 10; inactive = the rest.

// query growth value for entry "C=CCc1c(O)c(C(=O)/C=C/c2ccccc2)c(OC)c2ccoc12" 21% (inactive)

// query growth value for entry CCC(C(=O)[C@@H](C)[C@@H](O)[C@H](C)[C@@H]1O[C@@H]([C@@H](CC)C(=O)ONC(=O)c2ccccc2)CC[C@@H]1C)[C@H]1O[C@]2(C=CC(=O)[C@]3(CC[C@@](C)([C@H]4CC[C@](O)(CC)[C@H](C)O4)O3)O2)[C@H](C)C[C@@H]1C (stereo partly specified) 12.1% (inactive)

// query growth value for entry "C#Cc1c2c(c(OC)c3c1OCO3)[C@H]([C@H]1OC(=O)c3c1ccc(OC)c3OC)N(C)CC2" 59.6% (inactive)

// query growth value for entry "COc1ccc(Nc2nc(-c3cc(O)c(C)c(C)c3O)cs2)cc1" 23% (inactive)

// query growth value for entry "C=CCSc1nnc(NC(=O)CCl)s1" 93% (inactive)

// query growth value for entry C#CCNC(=O)[C@H](CC)[C@H]1CC[C@H](C)[C@H]([C@@H](C)[C@H](O)[C@H](C)C(=O)[C@H](CC)C2O[C@]3(C=CC(=O)[C@]4(CC[C@@](C)([C@H]5CC[C@](O)(CC)[C@H](C)O5)O4)O3)[C@H](C)C[C@@H]2C)O1 (stereo partly specified) 14.7% (inactive)

// query growth value for entry CCN1C(=S)N(c2ccccc2)C2C1NN=c1s/c(=C3\C(=O)N(C(C)C)c4ccccc43)c(=O)n12 (stereo unspecified) 64.1% (inactive)

// query growth value for entry "NC(=O)c1cccc(-n2ccc3cc(NC(=O)c4ccc(N5CCOCC5)c(C(F)(F)F)c4)ccc32)n1" 66.1% (inactive)

// query growth value for entry "O=C(Nc1ccc(Oc2cccc(Cl)c2)c(Cl)c1)c1cnccn1" 14.8% (inactive)

// query growth value for entry "CCCCNCCCCCNc1cc(OC)cc2cccnc12" 95.9% (inactive)

// query growth value for entry "O=C1/C=C/[C@@H](O)[C@@H]2C[C@@H](O)C[C@H]2/C=C/CCC[C@H](CCc2ccccc2)O1" 5.65% (active)

// query growth value for entry "C#COc1cccc(Nc2c(C#N)cnc3ncc(NC(=O)CCl)cc23)c1" 76.5% [6.25 µM] (inactive)

// query growth value for entry "CSc1oc(C)nc1[P+](c1ccccc1)(c1ccccc1)c1ccccc1" 106% (inactive)

// query growth value for entry "Cc1ccc(-c2nc(N3CCCNCC3)c3oc(-c4ccc(C)cc4)nc3n2)cc1" 16.3% (inactive)

// query growth value for entry "COc1cc2ncnc(Nc3ccc(F)c(Cl)c3)c2cc1OCC(=O)N1CCN(c2ccccc2)CC1" 80.5% (inactive)

// query growth value for entry "Fc1ccc(CNc2c3ccccc3nc3ccccc23)c(F)c1" 36.2% (inactive)

// query growth value for entry "O=C(N/N=C/c1c(Cl)cccc1Cl)c1cccnc1Nc1cccc(C(F)(F)F)c1" 31% (inactive)

// query growth value for entry Nc1c(C(=O)Nc2ccncc2)sc2nc3c(cc12)C(O)CCC3 (stereo unspecified) 105% (inactive)

// query growth value for entry "O=C1Nc2ccc(C(=O)O)cc2/C1=N/c1nnc(Sc2ccccc2)s1" 110% (inactive)

// query growth value for entry "CCC(=C(c1ccc(OCCN2CCCCC2)cc1)c1ccc(OCCN2CCCCC2)cc1)c1ccc(Cl)cc1" -84.6% (active)

// query growth value for entry "Cc1c[n+](Cc2ccc3ccccc3c2)cn1Cc1ccc2ccccc2c1" 101% (inactive)

// query growth value for entry "Cn1c(=O)cc2c3c(c(NCCCO)ccc31)C(=O)c1ccccc1-2" 57.1% (inactive)

// query growth value for entry "Oc1c(I)cc(I)cc1CNCc1ccccn1" 10.3% (inactive)

// query growth value for entry "N#Cc1nc(-c2ccc(Cl)cc2)oc1S(=O)(=O)N1CCN(c2ccc(F)cc2)CC1" 101% (inactive)

// query growth value for entry "C=C(CBr)[C@@H]1CC[C@]2(C(=O)O)CC[C@]3(C)[C@H](CC[C@@H]4[C@@]5(C)CCC(=O)C(C)(C)[C@@H]5CC[C@]43C)[C@@H]12" 83.4% (inactive)

// query growth value for entry "Nc1nc(-c2ccc(Cl)cc2)nc2c1sc(=S)n2-c1ccccc1" 43.8% (inactive)

This collection of values is drawn from PubChem BioAssay (NCI).
